Test system: Escherichia coli TOP10
Procedure Text: shrunken log2 fold change of peptide-encoding DNA abundance (4.5 h post-induction vs induction); higher = less antimicrobial activity (less host growth inhibition)
Cond: time post-induction: 4.5 h; library: site-saturation at positions 5, 18, 19, 20

Sequence Chain: RRIRQRPPRLPRPRPRPGRIPRP
shrunken log2 fold change: -0.123
--
Sequence Chain: RRIRARPPRLPRPRPRPTCIPRP
shrunken log2 fold change: 0.331
--
Sequence Chain: RRIRSRPPRLPRPRPRPHMTPRP
shrunken log2 fold change: -0.384
--
Sequence Chain: RRIRWRPPRLPRPRPRPPWTPRP
shrunken log2 fold change: 0.688
--
Sequence Chain: RRIRDRPPRLPRPRPRPDPTPRP
shrunken log2 fold change: 0.0932
--
Sequence Chain: RRIRERPPRLPRPRPRPSLDPRP
shrunken log2 fold change: -0.35
--
Sequence Chain: RRIRPRPPRLPRPRPRPHTGPRP
shrunken log2 fold change: -0.0698
--
Sequence Chain: RRIRNRPPRLPRPRPRPERFPRP
shrunken log2 fold change: 0.128
--
Sequence Chain: RRIRMRPPRLPRPRPRPSGKPRP
shrunken log2 fold change: 0.222
--
Sequence Chain: RRIRPRPPRLPRPRPRPRKDPRP
shrunken log2 fold change: 0.173
--
Sequence Chain: RRIRIRPPRLPRPRPRPINRPRP
shrunken log2 fold change: -0.312
--
Sequence Chain: RRIRARPPRLPRPRPRPIGCPRP
shrunken log2 fold change: 0.445
--
Sequence Chain: RRIRMRPPRLPRPRPRPNKYPRP
shrunken log2 fold change: -0.148
--
Sequence Chain: RRIRARPPRLPRPRPRPCQCPRP
shrunken log2 fold change: 0.0726
--
Sequence Chain: RRIRERPPRLPRPRPRPPQVPRP
shrunken log2 fold change: 0.207
--
Sequence Chain: RRIRHRPPRLPRPRPRPGGMPRP
shrunken log2 fold change: 0.274
--
Sequence Chain: RRIRHRPPRLPRPRPRPDLGPRP
shrunken log2 fold change: 0.0527
--
Sequence Chain: RRIRHRPPRLPRPRPRPKDSPRP
shrunken log2 fold change: 0.0292
--
Sequence Chain: RRIRCRPPRLPRPRPRPVMLPRP
shrunken log2 fold change: -0.433
--
Sequence Chain: RRIRVRPPRLPRPRPRPPPEPRP
shrunken log2 fold change: 0.755
--
Sequence Chain: RRIRIRPPRLPRPRPRPQKDPRP
shrunken log2 fold change: -0.421
--
Sequence Chain: RRIRTRPPRLPRPRPRPPYLPRP
shrunken log2 fold change: -0.365
--
Sequence Chain: RRIRVRPPRLPRPRPRPLDFPRP
shrunken log2 fold change: -0.147
--
Sequence Chain: RRIRMRPPRLPRPRPRPMWLPRP
shrunken log2 fold change: 0.208
--
Sequence Chain: RRIRTRPPRLPRPRPRPYTDPRP
shrunken log2 fold change: -0.448
--
Sequence Chain: RRIRKRPPRLPRPRPRPYCFPRP
shrunken log2 fold change: -0.258
--
Sequence Chain: RRIRTRPPRLPRPRPRPSGLPRP
shrunken log2 fold change: -0.573
--
Sequence Chain: RRIRERPPRLPRPRPRPAAEPRP
shrunken log2 fold change: 0.0581
--
Sequence Chain: RRIRDRPPRLPRPRPRPIGMPRP
shrunken log2 fold change: 0.0484
--
Sequence Chain: RRIRKRPPRLPRPRPRPDIAPRP
shrunken log2 fold change: 1
--
Sequence Chain: RRIRCRPPRLPRPRPRPLSEPRP
shrunken log2 fold change: -0.219
--
Sequence Chain: RRIRRRPPRLPRPRPRPHFVPRP
shrunken log2 fold change: -0.103

* * *

// reported shrunken log2 fold change per item
System: Escherichia coli TOP10
Procedure Text: shrunken log2 fold change of peptide-encoding DNA abundance (4.5 h post-induction vs induction); higher = less antimicrobial activity (less host growth inhibition)
Cond: time post-induction: 4.5 h; library: site-saturation at positions 5, 18, 19, 20

Sequence Chain: RRIRVRPPRLPRPRPRPTAGPRP
shrunken log2 fold change: -0.0283

Sequence Chain: RRIRLRPPRLPRPRPRPVDWPRP
shrunken log2 fold change: 0.252

Sequence Chain: RRIRMRPPRLPRPRPRPIEIPRP
shrunken log2 fold change: -0.0115

Sequence Chain: RRIRIRPPRLPRPRPRPDVVPRP
shrunken log2 fold change: -0.0365

Sequence Chain: RRIRQRPPRLPRPRPRPIQRPRP
shrunken log2 fold change: -0.0376

Sequence Chain: RRIRIRPPRLPRPRPRPVMLPRP
shrunken log2 fold change: -0.776

Sequence Chain: RRIRFRPPRLPRPRPRPEHFPRP
shrunken log2 fold change: -0.213

Sequence Chain: RRIRSRPPRLPRPRPRPPNNPRP
shrunken log2 fold change: -0.404

Sequence Chain: RRIRWRPPRLPRPRPRPYIVPRP
shrunken log2 fold change: -0.727

Sequence Chain: RRIRSRPPRLPRPRPRPPFYPRP
shrunken log2 fold change: -0.154

Sequence Chain: RRIRPRPPRLPRPRPRPHRSPRP
shrunken log2 fold change: 0.0256

Sequence Chain: RRIRSRPPRLPRPRPRPEGIPRP
shrunken log2 fold change: 0.0592

Sequence Chain: RRIRHRPPRLPRPRPRPRVTPRP
shrunken log2 fold change: 0.0786

Sequence Chain: RRIRARPPRLPRPRPRPVCEPRP
shrunken log2 fold change: 0.836

Sequence Chain: RRIRVRPPRLPRPRPRPPWTPRP
shrunken log2 fold change: 0.223

* * *

Test system: Escherichia coli TOP10
Procedure Text: shrunken log2 fold change of peptide-encoding DNA abundance (4.5 h post-induction vs induction); higher = less antimicrobial activity (less host growth inhibition)
Cond: time post-induction: 4.5 h; library: site-saturation at positions 5, 18, 19, 20

Sequence Chain: RRIRVRPPRLPRPRPRPQQCPRP
Tested Target: Escherichia coli TOP10
shrunken log2 fold change: 0.145
--
Sequence Chain: RRIRVRPPRLPRPRPRPDHCPRP
Tested Target: Escherichia coli TOP10
shrunken log2 fold change: -0.146
--
Sequence Chain: RRIRARPPRLPRPRPRPGEIPRP
Tested Target: Escherichia coli TOP10
shrunken log2 fold change: 0.599
--
Sequence Chain: RRIRFRPPRLPRPRPRPMIAPRP
Tested Target: Escherichia coli TOP10
shrunken log2 fold change: -0.195
--
Sequence Chain: RRIRSRPPRLPRPRPRPKARPRP
Tested Target: Escherichia coli TOP10
shrunken log2 fold change: 0.0932
--
Sequence Chain: RRIRARPPRLPRPRPRPMYSPRP
Tested Target: Escherichia coli TOP10
shrunken log2 fold change: -0.08
--
Sequence Chain: RRIRNRPPRLPRPRPRPHIWPRP
Tested Target: Escherichia coli TOP10
shrunken log2 fold change: -0.0306
--
Sequence Chain: RRIRCRPPRLPRPRPRPELFPRP
Tested Target: Escherichia coli TOP10
shrunken log2 fold change: 0.676
--
Sequence Chain: RRIRQRPPRLPRPRPRPMWYPRP
Tested Target: Escherichia coli TOP10
shrunken log2 fold change: -0.298
--
Sequence Chain: RRIRRRPPRLPRPRPRPGYTPRP
Tested Target: Escherichia coli TOP10
shrunken log2 fold change: 0.243
--
Sequence Chain: RRIRPRPPRLPRPRPRPKIIPRP
Tested Target: Escherichia coli TOP10
shrunken log2 fold change: -0.0308
--
Sequence Chain: RRIRHRPPRLPRPRPRPVLTPRP
Tested Target: Escherichia coli TOP10
shrunken log2 fold change: -0.107
--
Sequence Chain: RRIRMRPPRLPRPRPRPRDKPRP
Tested Target: Escherichia coli TOP10
shrunken log2 fold change: 0.0704
--
Sequence Chain: RRIRGRPPRLPRPRPRPVHTPRP
Tested Target: Escherichia coli TOP10
shrunken log2 fold change: 0.174
--
Sequence Chain: RRIRARPPRLPRPRPRPGDEPRP
Tested Target: Escherichia coli TOP10
shrunken log2 fold change: 0.393
--
Sequence Chain: RRIRQRPPRLPRPRPRPAYEPRP
Tested Target: Escherichia coli TOP10
shrunken log2 fold change: -0.00926
--
Sequence Chain: RRIRTRPPRLPRPRPRPNGRPRP
Tested Target: Escherichia coli TOP10
shrunken log2 fold change: -0.0231
--
Sequence Chain: RRIRYRPPRLPRPRPRPGRCPRP
Tested Target: Escherichia coli TOP10
shrunken log2 fold change: -0.102
--
Sequence Chain: RRIRKRPPRLPRPRPRPFCQPRP
Tested Target: Escherichia coli TOP10
shrunken log2 fold change: 0.212
--
Sequence Chain: RRIRFRPPRLPRPRPRPWDCPRP
Tested Target: Escherichia coli TOP10
shrunken log2 fold change: 0.00208
--
Sequence Chain: RRIRYRPPRLPRPRPRPFGIPRP
Tested Target: Escherichia coli TOP10
shrunken log2 fold change: -0.149
--
Sequence Chain: RRIRRRPPRLPRPRPRPGPIPRP
Tested Target: Escherichia coli TOP10
shrunken log2 fold change: 0.174
--
Sequence Chain: RRIRGRPPRLPRPRPRPLDYPRP
Tested Target: Escherichia coli TOP10
shrunken log2 fold change: 0.0074
--
Sequence Chain: RRIRSRPPRLPRPRPRPTGKPRP
Tested Target: Escherichia coli TOP10
shrunken log2 fold change: 0.274
--
Sequence Chain: RRIRWRPPRLPRPRPRPTSNPRP
Tested Target: Escherichia coli TOP10
shrunken log2 fold change: -0.0919
--
Sequence Chain: RRIRIRPPRLPRPRPRPNDFPRP
Tested Target: Escherichia coli TOP10
shrunken log2 fold change: -0.276
--
Sequence Chain: RRIRWRPPRLPRPRPRPYQWPRP
Tested Target: Escherichia coli TOP10
shrunken log2 fold change: -0.0641
--
Sequence Chain: RRIRWRPPRLPRPRPRPKSQPRP
Tested Target: Escherichia coli TOP10
shrunken log2 fold change: 0.263
--
Sequence Chain: RRIRSRPPRLPRPRPRPKRYPRP
Tested Target: Escherichia coli TOP10
shrunken log2 fold change: -0.163
--
Sequence Chain: RRIRLRPPRLPRPRPRPYLAPRP
Tested Target: Escherichia coli TOP10
shrunken log2 fold change: -0.756
--
Sequence Chain: RRIRRRPPRLPRPRPRPQPTPRP
Tested Target: Escherichia coli TOP10
shrunken log2 fold change: 0.533
--
Sequence Chain: RRIRKRPPRLPRPRPRPQWTPRP
Tested Target: Escherichia coli TOP10
shrunken log2 fold change: 0.0894
--
Sequence Chain: RRIRTRPPRLPRPRPRPMQFPRP
Tested Target: Escherichia coli TOP10
shrunken log2 fold change: -0.0258
--
Sequence Chain: RRIRDRPPRLPRPRPRPNGSPRP
Tested Target: Escherichia coli TOP10
shrunken log2 fold change: -0.0808
--
Sequence Chain: RRIRWRPPRLPRPRPRPVKNPRP
Tested Target: Escherichia coli TOP10
shrunken log2 fold change: 0.238
--
Sequence Chain: RRIRKRPPRLPRPRPRPEETPRP
Tested Target: Escherichia coli TOP10
shrunken log2 fold change: 2.19
--
Sequence Chain: RRIRLRPPRLPRPRPRPNTVPRP
Tested Target: Escherichia coli TOP10
shrunken log2 fold change: -0.0627
--
Sequence Chain: RRIRIRPPRLPRPRPRPKELPRP
Tested Target: Escherichia coli TOP10
shrunken log2 fold change: -0.563
--
Sequence Chain: RRIRPRPPRLPRPRPRPQRKPRP
Tested Target: Escherichia coli TOP10
shrunken log2 fold change: 0.113
--
Sequence Chain: RRIRERPPRLPRPRPRPTRPPRP
Tested Target: Escherichia coli TOP10
shrunken log2 fold change: 0.461
--
Sequence Chain: RRIRERPPRLPRPRPRPDGWPRP
Tested Target: Escherichia coli TOP10
shrunken log2 fold change: 0.0267
--
Sequence Chain: RRIRTRPPRLPRPRPRPIGFPRP
Tested Target: Escherichia coli TOP10
shrunken log2 fold change: -0.0989
--
Sequence Chain: RRIRGRPPRLPRPRPRPPIKPRP
Tested Target: Escherichia coli TOP10
shrunken log2 fold change: 0.403
--
Sequence Chain: RRIRTRPPRLPRPRPRPKGRPRP
Tested Target: Escherichia coli TOP10
shrunken log2 fold change: -0.219
--
Sequence Chain: RRIRARPPRLPRPRPRPGRGPRP
Tested Target: Escherichia coli TOP10
shrunken log2 fold change: 0.486
--
Sequence Chain: RRIRTRPPRLPRPRPRPIGYPRP
Tested Target: Escherichia coli TOP10
shrunken log2 fold change: -0.0183
--
Sequence Chain: RRIRGRPPRLPRPRPRPLVGPRP
Tested Target: Escherichia coli TOP10
shrunken log2 fold change: 0.439
--
Sequence Chain: RRIRPRPPRLPRPRPRPYWPPRP
Tested Target: Escherichia coli TOP10
shrunken log2 fold change: -0.143
--
Sequence Chain: RRIRVRPPRLPRPRPRPLWIPRP
Tested Target: Escherichia coli TOP10
shrunken log2 fold change: -0.189
--
Sequence Chain: RRIRARPPRLPRPRPRPSFVPRP
Tested Target: Escherichia coli TOP10
shrunken log2 fold change: 0.0934
--
Sequence Chain: RRIRNRPPRLPRPRPRPTYLPRP
Tested Target: Escherichia coli TOP10
shrunken log2 fold change: -0.533
--
Sequence Chain: RRIRVRPPRLPRPRPRPSKSPRP
Tested Target: Escherichia coli TOP10
shrunken log2 fold change: -0.172
--
Sequence Chain: RRIRERPPRLPRPRPRPPDHPRP
Tested Target: Escherichia coli TOP10
shrunken log2 fold change: -0.0455
--
Sequence Chain: RRIRCRPPRLPRPRPRPWDPPRP
Tested Target: Escherichia coli TOP10
shrunken log2 fold change: -0.211
--
Sequence Chain: RRIRFRPPRLPRPRPRPRVKPRP
Tested Target: Escherichia coli TOP10
shrunken log2 fold change: -0.154
--
Sequence Chain: RRIRIRPPRLPRPRPRPTCNPRP
Tested Target: Escherichia coli TOP10
shrunken log2 fold change: -0.313
--
Sequence Chain: RRIRSRPPRLPRPRPRPNHMPRP
Tested Target: Escherichia coli TOP10
shrunken log2 fold change: -0.236
--
Sequence Chain: RRIRPRPPRLPRPRPRPSDTPRP
Tested Target: Escherichia coli TOP10
shrunken log2 fold change: -0.29
--
Sequence Chain: RRIRMRPPRLPRPRPRPYYEPRP
Tested Target: Escherichia coli TOP10
shrunken log2 fold change: -0.28
--
Sequence Chain: RRIRKRPPRLPRPRPRPGNSPRP
Tested Target: Escherichia coli TOP10
shrunken log2 fold change: -0.0266
--
Sequence Chain: RRIRNRPPRLPRPRPRPDICPRP
Tested Target: Escherichia coli TOP10
shrunken log2 fold change: 0.0866
--
Sequence Chain: RRIRPRPPRLPRPRPRPGFWPRP
Tested Target: Escherichia coli TOP10
shrunken log2 fold change: 0.61
--
Sequence Chain: RRIRSRPPRLPRPRPRPHYVPRP
Tested Target: Escherichia coli TOP10;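 note: peptides expressed intracellularly from a pBAD plasmid library in pooled LB shake-flask culture, induced with 0.3% L-arabinose, DNA abundance read by NGS, three biological replicates, DESeq2 with apeglm shrinkage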
shrunken log2 fold change: -0.488

// data source = the supplement of paper PMC9112550
